Give measured Remaining activity (%) immediately after preparation for each item. Keep answers brief.
measuredOn: T1, alcalase (trade name "Alcalase 2.5L", Novozymes) (UniProt P00780)
T1 sequence (looked up): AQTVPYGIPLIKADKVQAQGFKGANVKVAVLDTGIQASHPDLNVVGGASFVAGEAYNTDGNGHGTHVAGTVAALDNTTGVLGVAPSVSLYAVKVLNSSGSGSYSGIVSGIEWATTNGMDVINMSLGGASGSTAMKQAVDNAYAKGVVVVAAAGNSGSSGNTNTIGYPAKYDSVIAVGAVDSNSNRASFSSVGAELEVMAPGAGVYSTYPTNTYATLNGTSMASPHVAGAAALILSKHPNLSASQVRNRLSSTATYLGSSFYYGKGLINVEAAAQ
assayMethodText: cell-based or functional assay
# number then unit; no other words

Give the measured Remaining activity (%) immediately after preparation of proteinaceous protease inhibitor of SEQ ID NO:30 (protein) MSSVEKKPEGVNTGAGDRHNLKTAWPELVGKSVEEAKKVILQDKSEAQIIVLPVGTIVTMEYRIDRVRLFVDKLDNIAQVPRVG .
15%

One more binder: proteinaceous protease inhibitor of SEQ ID NO:10 (protein) TDTGDHHNQKTEWPELVGKSVEEAKKVILQDKSEAQIVVLPVGTIVTMELRIDRVRLFVDSLDKIAQVPRVG
9%

// same read-out, input: proteinaceous protease inhibitor of SEQ ID NO:18 (protein) TDTGDHHNQKTEWPELVGKSVEEAKKVILQDKSEAQIVVLPVGTIVTMEYRIARVRLFVDSLDKIAQVPRVG
3%

Entry proteinaceous protease inhibitor of SEQ ID NO:24 (protein) TDTGDHHNQKTEWPELVGKSVEEAKKVILQDKSEAQIVVLPVGTIVTGEYRIDRVRLFVDSLDKIAQVPAVG please
20%

Next record, please: proteinaceous protease inhibitor of SEQ ID NO:33 (protein) MSSVEKKPEGVNTGAGDRHNLKTEWPELVGKSVEEAKKVILQDKSEAQIIVLPVGTIVTMEYAIDRVRLFVDKLDNIAQVPRVG
1%
